biological target: IRAK1 (Homo sapiens); assay: RBC HotSpot Kinase Assay, IRAK1; details: isolated kinase, 33P-ATP
Sequence (P51617 whole entry): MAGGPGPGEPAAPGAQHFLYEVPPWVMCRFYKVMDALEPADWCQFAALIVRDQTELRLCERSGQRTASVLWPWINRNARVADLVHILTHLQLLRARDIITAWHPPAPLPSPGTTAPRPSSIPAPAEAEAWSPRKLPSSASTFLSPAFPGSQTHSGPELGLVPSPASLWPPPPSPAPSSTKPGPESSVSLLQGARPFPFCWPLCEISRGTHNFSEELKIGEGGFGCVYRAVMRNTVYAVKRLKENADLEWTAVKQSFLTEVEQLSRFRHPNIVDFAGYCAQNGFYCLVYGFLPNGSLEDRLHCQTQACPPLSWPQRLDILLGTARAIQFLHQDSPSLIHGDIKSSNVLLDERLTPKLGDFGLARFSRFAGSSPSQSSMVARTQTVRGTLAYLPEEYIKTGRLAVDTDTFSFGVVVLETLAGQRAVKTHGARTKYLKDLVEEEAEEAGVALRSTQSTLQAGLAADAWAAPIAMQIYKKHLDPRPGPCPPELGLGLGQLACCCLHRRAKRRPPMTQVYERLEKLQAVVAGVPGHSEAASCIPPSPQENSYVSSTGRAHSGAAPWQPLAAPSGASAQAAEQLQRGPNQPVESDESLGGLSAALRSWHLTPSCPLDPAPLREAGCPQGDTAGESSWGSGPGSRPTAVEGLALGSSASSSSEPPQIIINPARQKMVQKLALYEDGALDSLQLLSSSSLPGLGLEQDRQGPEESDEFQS
Rule: IC50 below 300 nM gives fulfilled, anything at or above gives not fulfilled.

Identify whether the compound O=S1(=O)CCCCN1c1cn2c(-c3nc(N[C@@H]4CCCNC4)c(F)cc3F)cnc2cn1 records IC50 below 300 nM.
fulfilled

Same thing, different compound: O=C1COCCN1c1cn2c(-c3cccc(N[C@H]4CNCC[C@@H]4F)n3)cnc2cn1
not fulfilled

And what about the compound CC(C)(C)c1cn2c(-c3cccc(N[C@@H]4CCCNC4)n3)cnc2cn1 ?
fulfilled

Now this one: O=S1(=O)CCCCN1c1cn2c(-c3nc(N[C@H]4CNC[C@@H]4F)c(F)cc3F)cnc2cn1
fulfilled

Now give it for CC(C)(C)c1cn2c(-c3cccc(N[C@H]4CNCC[C@@H]4F)n3)cnc2cn1 too.
fulfilled

// next record F[C@H]1CNC[C@@H]1Nc1cccc(-c2cnc3cnc(OCC4CC4)cn23)n1
not fulfilled

// same read-out, input: CC(C)(O)c1cn2c(-c3nc(N[C@@H]4CCCNC4)c(F)cc3F)cnc2cn1
fulfilled

Can you handle O=C1CCCN1c1cn2c(-c3cccc(N[C@@H]4CCCNC4)n3)cnc2cn1 next?
fulfilled

Record: CC(C)Oc1cn2c(-c3cccc(N[C@@H]4CCCNC4)n3)cnc2cn1
not fulfilled

Next compound up: O=C1NCCN1c1cn2c(-c3cccc(N[C@@H]4CCCNC4)n3)cnc2cn1
fulfilled

Moving on to c1cc(N[C@H]2CNCC23CC3)nc(-c2cnc3cnccn23)c1
not fulfilled

And what about the compound O=C1CCCN1c1cn2c(-c3cccc(N[C@H]4CNC[C@@H]4F)n3)cnc2cn1 ?
fulfilled

Could you do the same for CC(O)(c1cn2c(-c3nc(N[C@H]4CNC[C@@H]4F)c(F)cc3F)cnc2cn1)C(F)(F)F (single isomer, unassigned) [Compound 93] , please?
fulfilled

Continue with CC(O)(c1cn2c(-c3cccc(N[C@H]4CNC[C@@H]4F)n3)cnc2cn1)C(F)(F)F (single isomer, unassigned) [Compound 78]
fulfilled

And what about the compound O=S1(=O)CCCN1c1cn2c(-c3nc(N[C@H]4CNCC[C@@H]4F)c(F)cc3F)cnc2cn1 ?
fulfilled

----------
Biological target: FLT3 K663Q (Homo sapiens, UniProt P36888, K663Q)
Sequence (P36888 27-993 K663Q): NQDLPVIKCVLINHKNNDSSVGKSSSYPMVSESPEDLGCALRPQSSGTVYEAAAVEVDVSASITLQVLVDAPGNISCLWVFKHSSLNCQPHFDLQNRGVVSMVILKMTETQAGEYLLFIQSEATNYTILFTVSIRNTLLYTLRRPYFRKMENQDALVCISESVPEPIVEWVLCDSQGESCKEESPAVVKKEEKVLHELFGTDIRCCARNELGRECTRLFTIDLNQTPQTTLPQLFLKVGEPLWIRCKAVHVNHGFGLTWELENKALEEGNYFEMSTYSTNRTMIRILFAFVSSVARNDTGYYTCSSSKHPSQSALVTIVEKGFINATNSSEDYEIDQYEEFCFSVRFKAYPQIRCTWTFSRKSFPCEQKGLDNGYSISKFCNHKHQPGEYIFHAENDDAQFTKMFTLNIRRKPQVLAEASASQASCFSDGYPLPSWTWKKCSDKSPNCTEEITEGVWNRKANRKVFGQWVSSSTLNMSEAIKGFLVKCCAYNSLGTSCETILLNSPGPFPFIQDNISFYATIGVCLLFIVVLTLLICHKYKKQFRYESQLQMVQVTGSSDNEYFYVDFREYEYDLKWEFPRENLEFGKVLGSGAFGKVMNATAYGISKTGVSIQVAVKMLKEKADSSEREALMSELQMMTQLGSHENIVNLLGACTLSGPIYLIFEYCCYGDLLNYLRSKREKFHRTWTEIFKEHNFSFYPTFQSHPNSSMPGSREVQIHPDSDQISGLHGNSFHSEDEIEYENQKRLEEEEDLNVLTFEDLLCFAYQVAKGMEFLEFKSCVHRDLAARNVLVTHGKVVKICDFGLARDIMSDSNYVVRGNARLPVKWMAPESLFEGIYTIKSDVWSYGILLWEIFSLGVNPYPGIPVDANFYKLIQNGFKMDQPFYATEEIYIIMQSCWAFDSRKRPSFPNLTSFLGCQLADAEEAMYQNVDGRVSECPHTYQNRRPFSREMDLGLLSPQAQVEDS
Test: DiscoverX KINOMEscan competition binding, FLT3 K663Q
observed property: Kd
Number first, unit second.

Fill in the blank: the reported Kd of CC1(c2cn3c(-c4cccc(N[C@H]5CNC[C@@H]5F)n4)cnc3cn2)CC1 is ____.
0.24 nM

Could you do the same for Cn1cc(-c2cn3c(-c4cccc(N[C@H]5CNC[C@@H]5F)n4)cnc3cn2)cn1 , please?
0.82 nM

// query: CC(C)(O)c1cn2c(-c3cccc(N[C@@H]4CCCNC4)n3)cnc2cn1
0.83 nM

And the next one, FC(F)(F)COc1cn2c(-c3cccc(N[C@@H]4CCNC4)n3)cnc2cn1 ?
2.3 nM

Entry to check: CC1(c2cn3c(-c4cccc(N[C@H]5CNCC56CC6)n4)cnc3cn2)CC1
0.18 nM

Now the same for F[C@H]1CNC[C@@H]1Nc1cccc(-c2cnc3cnc(C4CC4)cn23)n1
0.39 nM

Now consider FC(F)c1cn2c(-c3cccc(N[C@H]4CNC[C@@H]4F)n3)cnc2cn1 .
1.4 nM
